Where do the numbers come from? From the supplement of paper PMC11628255.

normalised percent inhibition listing for selected compounds.
Test system: firefly luciferase (FLuc)
assay remarks: normalised percent inhibition of luminescence (vs positive and negative controls); higher = stronger inhibition
experimental parameters: metal salt concentration 1 mM; screening conditions buffer
Field format: number, assumed %, no unit text.

Consider the reported normalised percent inhibition for these compounds:
[Cl][Sn][Cl] [tin(II) chloride] = 100
O=[N+]([O-])[O-].O=[N+]([O-])[O-].[Zn+2] [zinc nitrate] = 46.4
[Cl][Pt-2]([Cl])([Cl])[Cl].[K+].[K+] [potassium tetrachloroplatinate(II)] = 99.6
CC#N.CC#N.CC#N.CC#N.F[B-](F)(F)F.[Cu+] [tetrakis(acetonitrile)copper(I) tetrafluoroborate] = 99.7
[Cl][Fe]([Cl])[Cl] [iron(III) chloride] = 101

QUERY: Using the record for [Cl][Fe][Cl] [iron(II) chloride] , report its normalised percent inhibition.
RESULT: 101

QUERY: Using the record for O=S(=O)([O-])[O-].[Fe+2] [iron(II) sulfate] , report its normalised percent inhibition.
RESULT: 99.4

###

Tested on: NanoLuc luciferase (NLuc)
assay remarks: normalised percent inhibition of luminescence (vs positive and negative controls); higher = stronger inhibition
experimental parameters: metal salt concentration 0.01 mM; screening conditions buffer
normalised percent inhibition listing for selected compounds.
Field format: number, assumed %, no unit text.

QUERY: Using the record for [Cl][Fe][Cl] [iron(II) chloride] , report its normalised percent inhibition.
RESULT: 5.7

QUERY: Using the record for [Cl][Fe]([Cl])[Cl] [iron(III) chloride] , report its normalised percent inhibition.
RESULT: 8.93

QUERY: Using the record for O=[N+]([O-])[O-].[Ag+] [silver nitrate] , report its normalised percent inhibition.
RESULT: 88

QUERY: Using the record for O=[N+]([O-])[O-].O=[N+]([O-])[O-].[Cu+2] [copper(II) nitrate] , report its normalised percent inhibition.
RESULT: 65.1

QUERY: Using the record for O=[N+]([O-])[O-].O=[N+]([O-])[O-].[Zn+2] [zinc nitrate] , report its normalised percent inhibition.
RESULT: 10.7

QUERY: Using the record for [Cl][Pt-2]([Cl])([Cl])[Cl].[K+].[K+] [potassium tetrachloroplatinate(II)] , report its normalised percent inhibition.
RESULT: 1.24

###

System: firefly luciferase (FLuc)
assay remarks: normalised percent inhibition of luminescence (vs positive and negative controls); higher = stronger inhibition
experimental parameters: metal salt concentration 0.1 mM; 100 mM HEPES buffer
endpoint name: normalised percent inhibition (%)
Field format: number, assumed %, no unit text.

[Cl][Fe][Cl] [iron(II) chloride] = 100

QUERY: GET /values?readout=normalised percent inhibition&system=firefly luciferase (FLuc)&item= O=[N+]([O-])[O-].[Ag+] [silver nitrate]
RESULT: 101

QUERY: GET /values?readout=normalised percent inhibition&system=firefly luciferase (FLuc)&item= O=[N+]([O-])[O-].O=[N+]([O-])[O-].O=[N+]([O-])[O-].[Ga+3] [gallium(III) nitrate]
RESULT: 99.3

QUERY: GET /values?readout=normalised percent inhibition&system=firefly luciferase (FLuc)&item= O=[N+]([O-])[O-].O=[N+]([O-])[O-].[Cd+2] [cadmium nitrate]
RESULT: 99.4

###

Tested on: Renilla luciferase (RLuc)
assay remarks: normalised percent inhibition of luminescence (vs positive and negative controls); higher = stronger inhibition
experimental parameters: metal salt concentration 0.025 mM; 100 mM HEPES buffer
endpoint name: normalised percent inhibition (%)
Field format: number, assumed %, no unit text.

Consider the reported normalised percent inhibition for these compounds:
O=[N+]([O-])[O-].[Ag+] [silver nitrate] = 84.8
[Cl][Pt-2]([Cl])([Cl])[Cl].[K+].[K+] [potassium tetrachloroplatinate(II)] = 8.38
O=[N+]([O-])[O-].O=[N+]([O-])[O-].[Cu+2] [copper(II) nitrate] = 105
CC#N.CC#N.CC#N.CC#N.F[B-](F)(F)F.[Cu+] [tetrakis(acetonitrile)copper(I) tetrafluoroborate] = 75.8

Read the next record carefully.
QUERY: Using the record for O.O.O.O.O.O.O.O=S(=O)([O-])[O-].[Mg+2] [magnesium sulfate] , report its normalised percent inhibition.
RESULT: -30.1
